- subject-of-test: CHIP (Homo sapiens)
- Construct: commercial human recombinant CHIP (OriGene)
- Sequence (Q9UNE7 whole entry): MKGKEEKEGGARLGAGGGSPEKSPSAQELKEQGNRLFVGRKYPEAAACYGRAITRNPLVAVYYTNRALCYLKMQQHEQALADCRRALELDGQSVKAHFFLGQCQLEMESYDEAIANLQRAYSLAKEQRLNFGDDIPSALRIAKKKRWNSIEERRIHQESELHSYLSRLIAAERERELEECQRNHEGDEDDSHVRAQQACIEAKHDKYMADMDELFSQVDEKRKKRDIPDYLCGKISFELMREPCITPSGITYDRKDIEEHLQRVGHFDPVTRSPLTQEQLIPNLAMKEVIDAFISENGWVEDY
- assay-notes: microscale thermophoresis, Monolith NT.[…], single-site fit
measured-property: Kd (nM)
Give bare numbers, in nM.

QUERY: Please indicate Kd recorded for "C=CC(=O)Nc1ccc(CN2C(=O)N(c3cc(OC)cc(OC)c3)Cc3cnc(Nc4ccc(N5CCN(C)CC5)cc4)nc32)cc1"
RESULT: 1830

Origin of values: paper PMC12313710
